# targetEntity: Alpha glucosidase (Homo sapiens, UniProt O43451+P10253+P14410+Q2M2H8)
# protocolText: Inhibition of alpha-glucosidase (unknown origin)
# Format: protein assay
metric: IC50

// worked examples, IC50 included
C=C(C)C(COc1c2occc2cc2ccc(=O)oc12)OC(C)(C)[C@H](O)COc1c2ccoc2cc2oc(=O)ccc12 (stereo partly drawn); 8.8 to 9.8 µM
C=C(C)C(COc1c2ccoc2cc2oc(=O)ccc12)OC(C)(C)C(O)COc1c2occc2c(OC)c2ccc(=O)oc12 (stereo not drawn); 8.8 to 9.8 µM

Consider the additional molecule presented here.
QUERY: // returns reported IC50 for input C=C(C)C(COc1c2occc2c(OC)c2ccc(=O)oc12)OC(C)(C)[C@H](O)COc1c2ccoc2cc2oc(=O)ccc12 (stereo partly drawn)
RESULT: 8.8 to 9.8 µM

###

Documented IC50 across a set of compounds
# Test system: Plasmodium falciparum
# protocolText: Antiplasmodial activity against multidrug-resistant Plasmodium falciparum K1 by [3H]-hypoxanthine incorporation assay
# Type: functional, organism-based

// worked examples, IC50 included
COc1cc(OC)c([C@@H]2Oc3c(OC)c(OC)cc(OC)c3[C@@H](/C=C/c3ccccc3)[C@H]2C(=O)c2ccccc2)c(O)c1OC; 3.02 to 4.21 mg/L
COc1cc(OC)c2c(c1OC)C=C(C(=O)c1ccccc1)C1(C=C(c3ccccc3)Oc3c(OC)c(OC)cc(OC)c31)O2 (stereo not given); 3.02 to 4.21 mg/L
COc1cc(OC)c(OC)c2c1C[C@H]1[C@@H](/C=C/c3ccccc3)c3c(OC)cc(OC)c(OC)c3O[C@@]1(c1ccccc1)O2; 3.02 to 4.21 mg/L
COc1cc(OC)c2c(c1OC)O[C@H]1c3c(OC)cc(OC)c(OC)c3O[C@H](c3ccccc3)[C@H]1[C@@H]2/C=C/c1ccccc1 [DEPENDENSIN]; 3.02 to 4.21 mg/L

Consider the additional compound presented here.
QUERY: // returns reported IC50 for input COc1cc(OC)c([C@@H]2Oc3c(OC)c(OC)cc(OC)c3[C@H](/C=C/c3ccccc3)[C@@H]2C(=O)c2ccccc2)c(O)c1OC
RESULT: 3.02 to 4.21 mg/L

###

Documented IC50 across a set of compounds
# protocolText: Inhibition of yeast alpha-glucosidase using p-nitrophenyl-alpha-D-glucopyranoside as substarte preincubated for 0.5 hrs followed by substrate addition measured after 0.5 hrs
# Set-up: species or system Saccharomyces cerevisiae
Your answer is read as µM, so omit the unit and give the number.

Cc1c(-c2c(O)ccc3c(C)cc(=O)oc23)c(=O)oc2cc(O)ccc12; 16.3

Consider the additional compound presented here.
QUERY: // returns reported IC50 for input Cc1cc(=O)oc2cc(O)c(-c3c(C)c4ccc(O)cc4oc3=O)cc12
RESULT: 36.8

###

# targetEntity: Human immunodeficiency virus type 1 reverse transcriptase (Human immunodeficiency virus 1, UniProt Q72547)
metric: pIC50
pIC50 is a log-scale quantity: -log10 of the concentration expressed in molar.

QUERY: // returns reported pIC50 for input Oc1ccc(/C=C/c2cc(O)c3c(-c4cc(O)cc(O)c4)c(-c4ccc(O)cc4)oc3c2)cc1
RESULT: 5.10

Reference source: ChEMBL document CHEMBL4373729
